test system: formaldehyde dehydrogenase; type: biochemical, Burkholderia multivorans; conditions: metal ion 1 mM in enzyme reaction solution
Kindly supply the reported Relative activity (%) values for the records listed here.
Numbers only, in %.

A selection of reference data follows.
> print(dat)
                     compound          measurement.target      reported.property  readout.unit  numeric.result
1  [Cl-].[Cl-].[Mg+2] [MgCl2]  formaldehyde dehydrogenase  Relative activity (%)             %           147.8
2        [Cl][Mn][Cl] [MnCl2]  formaldehyde dehydrogenase  Relative activity (%)             %           62.32
3            [Cl-].[K+] [KCl]  formaldehyde dehydrogenase  Relative activity (%)             %           104.0

List the reported Relative activity (%) of each compound below.
1. [Cl-].[Cl-].[Zn+2] [ZnCl2]
2. [Ba+2].[Cl-].[Cl-] [BaCl2]

Found:
1. 63.99
2. 98.55

List the reported Relative activity (%) of each compound below.
1. O=S(=O)([O-])[O-].[Cu+2] [CuSO4]
2. [Ca+2].[Cl-].[Cl-] [CaCl2]

Found:
1: 124.3; 2: 50.67

###

Kindly supply the reported Relative activity (%) values for the records listed here.
tested on: formaldehyde dehydrogenase; assay type: biochemical, Burkholderia multivorans; conditions: metal ion 5 mM in enzyme reaction solution
Give bare numbers, in %.

> print(dat)
                     compound  readout.unit  numeric.result
1        [Cl][Mn][Cl] [MnCl2]             %           111.6
2  [Ca+2].[Cl-].[Cl-] [CaCl2]             %           75.96

List the reported Relative activity (%) of each compound below.
1. [Ba+2].[Cl-].[Cl-] [BaCl2]
2. [Cl-].[Cl-].[Mg+2] [MgCl2]
3. [Cl-].[K+] [KCl]

Found:
1: 115.1; 2: 269.6; 3: 94.49

List the reported Relative activity (%) of each compound below.
1. [Cl-].[Cl-].[Zn+2] [ZnCl2]
2. O=S(=O)([O-])[O-].[Cu+2] [CuSO4]

Found:
192.2
91.30
